- target.of.assay: Isocitrate dehydrogenase [NADP] cytoplasmic (Homo sapiens)
- assay: Binding affinity to human recombinant IDH1 expressed in Escherichia coli BL21(DE3) pLysS cells assessed as dissociation constant by non-denaturing mass spectroscopic analysis
measured.parameter: Kd
Write down the value, and be sure its unit follows.

Name the reported Kd value associated with the compound `COc1c(C)cc(NC(=O)c2nn(Cc3ccc(F)cc3)c3c2CN(C(=O)c2ccc[nH]2)C[C@]3(C)C(N)=O)cc1C`
24 µM

---

- target.of.assay: Isocitrate dehydrogenase [NADP] cytoplasmic (Homo sapiens, UniProt O75874, R132H)
- Sequence (O75874 2-414 R132H limits assumed): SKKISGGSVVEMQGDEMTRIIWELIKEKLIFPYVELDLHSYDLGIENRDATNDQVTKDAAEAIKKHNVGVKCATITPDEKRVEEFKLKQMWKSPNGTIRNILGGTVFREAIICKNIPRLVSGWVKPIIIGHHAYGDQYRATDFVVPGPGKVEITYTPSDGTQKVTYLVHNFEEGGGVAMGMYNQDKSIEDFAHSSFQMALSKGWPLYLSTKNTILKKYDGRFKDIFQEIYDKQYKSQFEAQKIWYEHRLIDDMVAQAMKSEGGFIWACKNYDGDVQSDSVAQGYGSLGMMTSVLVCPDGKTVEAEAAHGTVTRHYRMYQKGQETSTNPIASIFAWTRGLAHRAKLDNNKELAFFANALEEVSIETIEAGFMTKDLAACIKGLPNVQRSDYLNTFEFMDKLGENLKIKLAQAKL
- assay: Inhibition of recombinant IDH1 R132H mutant (unknown origin) expressed in Escherichia coli BL21(DE3) pLysS cells using 2OG as substrate assessed as 2OG conversion to 2HG incubated for 60 mins in presence of NADPH by spectrophotometric analysis
measured.parameter: IC50 (nM)
One number for each entry, in nM.

Name the reported IC50 value associated with the molecule Cc1ccccc1C(C(=O)NC1CCCCC1)N(C(=O)Cn1cnc2ccccc21)c1cccc(F)c1 (stereo unspecified)
73
